system: IgE antibodies of allergic patients; experiment: EAST inhibition test (IgE reactivity / allergenicity); type: binding, human; settings: relative to native Phl p 5b at 25% inhibition; individual serum II/17
measurementName: Allergenic potency (Prel) 25%
Give only the figure.

Given the molecule r Phl p 5b: recombinant wild type Phl p 5b, 265 amino acids, SEQ ID NO 87 (protein) ADAGYAPATPAAAGAAAGKATTEEQKLIEDINVGFKAAVAAAASVPAADKFKTFEAAFTSSSKAAAAKAPGLVPKLDAAYSVAYKAAVGATPEAKFDSFVASLTEALRVIAGALEVHAVKPVTEEPGMAKIPAGELQIIDKIDAAFKVAATAAATAPADDKFTVFEAAFNKAIKESTGGAYDTYKCIPSLEAAVKQAYAATVAAAPQVKYAVFEAALTKAITAMSEVQKVSQPATGAATVAAGAATTAAGAASGAATVAAGGYKV , write its reported Allergenic potency (Prel) 25%.
1.045
